system: NCI-H460; assay: NCI tumour cell line growth inhibition, 48 h
Active and inactive are the calls of the source. Cut-off read from the data, not from the text of the source: active = GI50 up to about 1.1 µM and inactive = higher.
Outcome codes: active, inactive

>  <compound>
CSC12c3cc(C)n(-c4ccc([N+](=O)[O-])cc4)c3CC(C)(C)CN1C(=O)C2Oc1ccccc1 (centres undefined)

>  <cat>
inactive

$$$$
>  <compound>
O=C(Cc1ccccc1)NN1C(=O)/C(=C\c2ccccc2)S/C1=N\c1ccccc1

>  <cat>
inactive

$$$$
>  <compound>
Cc1nn(C(=O)Cc2ccccc2)c2c1C(c1ccccc1[N+](=O)[O-])SC(=N)N2 (centres undefined)

>  <cat>
inactive

$$$$
>  <compound>
CSc1nc(NC2OC(CO)C(O)C(O)C2O)c(N)c(=O)[nH]1 (centres undefined)

>  <cat>
inactive

$$$$
>  <compound>
O=C1C=CC(=O)c2c1c1c(c3c2C2c4ccccc4C3c3ccccc32)C2c3ccccc3C1c1ccccc12

>  <cat>
inactive

$$$$
>  <compound>
CCN(CCCl)c1cc(CN(C)C)cc(NC(=O)c2ccc(C(=O)Nc3ccccc3)cc2)c1

>  <cat>
active

$$$$
>  <compound>
O=S(O)CCCSSc1ccccc1

>  <cat>
inactive

$$$$
>  <compound>
CCSc1nnc2c(-c3ccccc3)n[nH]c2n1

>  <cat>
inactive

$$$$
>  <compound>
CO[C@@H]1[C@H](OC(=O)NC(=O)CCl)CC[C@]2(CO2)[C@H]1[C@@]1(C)O[C@@H]1CC=C(C)C

>  <cat>
inactive

$$$$

---

system: HCC 2998; experiment: NCI tumour cell line growth inhibition, 48 h
Calls of active or inactive are those of the source. Cut-off read from the data, not from the text of the source: active = GI50 up to about 1.1 µM and inactive = higher.
Outcome codes: yes (1) for active, no (0) for inactive

>  <compound>
COc1cc(C2C(Cl)C(=O)N2NC(=O)c2ccc(N)cc2)cc(Br)c1O (centres undefined)

>  <cat>
no (0)

$$$$
>  <compound>
C/C(=N\Nc1nc2ccccc2o1)c1cc(C)ncn1

>  <cat>
no (0)

$$$$
>  <compound>
O=c1[c-](-c2ccccc2)[se]c(-c2ccccc2)[n+]1-c1ccccc1

>  <cat>
no (0)

$$$$
>  <compound>
Cc1cnc2[nH]c(-c3cccc(Cl)c3)cc(=O)c2c1

>  <cat>
yes (1)

$$$$
>  <compound>
CC(C)[C@@H](COC(C)(C)C)/N=C/N1CCc2c([nH]c3ccccc23)C1

>  <cat>
no (0)

$$$$
>  <compound>
CC(C)(c1ccc(C=O)o1)c1ccc(C(C)(C)c2ccc(C=O)o2)o1

>  <cat>
no (0)

$$$$
>  <compound>
O=c1c(C(c2ccc(O)cc2)c2c(O)oc3ccccc3c2=O)c(O)oc2ccccc12

>  <cat>
no (0)

$$$$
>  <compound>
CC(=O)NC1CCC(NC(=O)OC(C)(C)C)C(NC(=O)OC(C)(C)C)C1 (centres undefined)

>  <cat>
no (0)

$$$$
>  <compound>
Cc1ccc(S(=O)(=O)Oc2nc3ccccc3nc2OS(=O)(=O)c2ccc(C)cc2)cc1

>  <cat>
no (0)

$$$$
>  <compound>
COC1/C=C\C=C(/C)C(=O)NC2=CC(=O)C(NCCCl)=C(CC(C)CC(OC)C(O)C(C)/C=C(/C)C1OC(N)=O)C2=O (centres undefined)

>  <cat>
yes (1)

$$$$
>  <compound>
O=C(N/C(=C\c1ccccc1O)c1nc2ccccc2[nH]1)c1ccccc1

>  <cat>
no (0)

$$$$
>  <compound>
[O-]c1c2cc(-[n+]3c(-c4ccccc4)cc(-c4ccccc4)cc3-c3ccccc3)cc1CO[C@@H](c1ccccc1)[C@H](c1ccccc1)OCc1cccc(n1)CO[C@@H](c1ccccc1)[C@H](c1ccccc1)OC2

>  <cat>
yes (1)

$$$$
>  <compound>
Nc1nc(CCC(=O)Nc2cccc(C(F)(F)F)c2)cc(-c2cccc3ccccc23)n1

>  <cat>
no (0)

$$$$
>  <compound>
O=C(CC(=O)N(C(=O)/C=C\c1ccccc1)c1ccc(Cl)cc1)N1N=C(c2ccccc2)C(/N=N/c2cccc([N+](=O)[O-])c2)C1=O (centres undefined)

>  <cat>
no (0)

$$$$
>  <compound>
CSc1nc(CO)c(CO)n1C

>  <cat>
no (0)

$$$$
>  <compound>
Cc1nn(C(=O)Cc2ccccc2)c2c1C(c1ccccc1[N+](=O)[O-])SC(=N)N2 (centres undefined)

>  <cat>
no (0)

$$$$
>  <compound>
N#C[C@H](c1nc2ccccc2[nH]1)c1nc2ccccc2nc1Cl

>  <cat>
no (0)

$$$$
>  <compound>
Nc1nc2c(C(=O)O)c3ccc([N+](=O)[O-])cc3c(=O)n2c2ccccc12

>  <cat>
no (0)

$$$$
>  <compound>
c1ccc2c(OCC3CO3)ccc(OCC3CO3)c2c1 (centres undefined)

>  <cat>
no (0)

$$$$
